target-desc: PKM2 (Homo sapiens)
Sequence (P14618 whole entry): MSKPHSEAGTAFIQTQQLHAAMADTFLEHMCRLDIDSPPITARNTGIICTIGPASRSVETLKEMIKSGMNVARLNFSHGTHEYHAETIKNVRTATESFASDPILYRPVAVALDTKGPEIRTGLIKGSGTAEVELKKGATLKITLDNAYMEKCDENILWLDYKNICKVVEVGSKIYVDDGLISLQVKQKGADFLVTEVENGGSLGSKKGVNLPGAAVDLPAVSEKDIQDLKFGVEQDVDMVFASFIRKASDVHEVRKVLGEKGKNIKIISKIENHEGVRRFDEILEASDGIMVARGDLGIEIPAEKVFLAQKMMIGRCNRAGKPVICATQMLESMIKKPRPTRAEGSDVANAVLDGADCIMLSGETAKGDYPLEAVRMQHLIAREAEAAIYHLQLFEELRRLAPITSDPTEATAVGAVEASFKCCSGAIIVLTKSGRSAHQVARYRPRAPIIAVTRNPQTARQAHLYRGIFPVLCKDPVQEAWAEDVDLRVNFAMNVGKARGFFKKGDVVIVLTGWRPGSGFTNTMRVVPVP
assay-summary: PKM2 Biochemical Assay
condition-summary: % maximum response in a biochemical assay as compared with Fructose 1,6-bisphosphate
Overview of reported Max. Resp. across a group of compounds:
Respond with the bare value in %.

Observed Max. Resp. on PKM2 (Homo sapiens) for O=C(c1cc(C(F)(F)F)n[nH]1)N(CCC(F)(F)F)Cc1ccc(O)cc1F [Example 130] , please.
100

Also need CC(CN(Cc1c(N)cccc1Cl)C(=O)c1cc(C(F)(F)F)n[nH]1)N1CCCC1 (centres unmarked) [Example 221] , thanks.
60

Also need O=C(c1cc(Cl)n[nH]1)N(Cc1cccc2[nH]cnc12)CC1CCC1 [Example 119] , thanks.
100

Also need Nc1ccc(F)c(CN(CCN2CCCCCC2)C(=O)c2cc(C(F)(F)F)n[nH]2)c1 [Example 214] , thanks.
100

Also need O=C(c1cc(C(F)(F)F)n[nH]1)N(Cc1ccc(O)cc1F)CC1COC1 [Example 15] , thanks.
102

----------
Overview of reported pEC50 across a group of compounds:
System: A549 cells
assay-summary: Cell Proliferation Assay, A549
Format: cell-based
condition-summary: Homo sapiens; A549, BME media lacking nonessential amino acids, 72 hours, ATPlite; read-out: Percent viability (EC50), Average
Here pEC50 is given on a logarithmic scale as minus log10 of the concentration in mol/L.

Observed pEC50 on A549 cells for O=C(c1cc(C(F)(F)F)n[nH]1)N(Cc1ccc(O)cc1F)CC1CCC1 , please.
7.15

Also need CCCN(CC)CCN(Cc1c(N)cccc1Cl)C(=O)c1cc(C(F)(F)F)n[nH]1 , thanks.
7.47

Also need O=C(c1cc(C(F)(F)F)n[nH]1)N(CCC1CCS(=O)(=O)C1)Cc1ccccc1Cl (stereo not shown) , thanks.
6.97

Also need Nc1cccc(Cl)c1CN(CCN1CCCOCC1)C(=O)c1cc(C(F)(F)F)n[nH]1 , thanks.
7.14

----------
target-desc: PKM2 (Homo sapiens)
assay-summary: PKM2 Biochemical Assay
condition-summary: % maximum response in a biochemical assay as compared with Fructose 1,6-bisphosphate
measured-parameter: Max. Resp. (%)
Respond with the bare value in %.

Guide cases for Max. Resp., answers given:
>>> meas_value("O=C(c1cc(C(F)(F)F)n[nH]1)N(CCC1CCSCC1)Cc1ccc(O)cc1F")
98
>>> meas_value("CCCN(CC)CCN(Cc1ccccc1Cl)C(=O)c1cc(C(F)(F)F)n[nH]1")
100
>>> meas_value("COCCN(Cc1ccc(O)cc1F)C(=O)c1cc(C(F)(F)F)n[nH]1")
100
>>> meas_value("CC1CCCCN1CCN(Cc1cc(N)ccc1Cl)C(=O)c1cc(C(F)(F)F)n[nH]1 (stereo not shown)")
100
>>> meas_value("Nc1cccc(Cl)c1CN(CC1CCN1)C(=O)c1cc(C(F)(F)F)n[nH]1 (stereo not shown)")
75
>>> meas_value("O=C(c1cc(C(F)(F)F)n[nH]1)N(CCN1CCC(F)(F)CC1)Cc1ccccc1Cl")
100
>>> meas_value("O=C(c1cc(C(F)(F)F)n[nH]1)N(Cc1cccc2[nH]ccc12)NC1CCC1")
100
>>> meas_value("Nc1cccc(Cl)c1CN(CCN1CCC(O)C1)C(=O)c1cc(C(F)(F)F)n[nH]1 (stereo not shown)")
100
>>> meas_value("CO[C@H]1CC[C@H](N(Cc2ccccc2Cl)C(=O)c2cc(C(F)(F)F)n[nH]2)CC1")
100
>>> meas_value("O=C(c1cc(Cl)n[nH]1)N(Cc1cccc2[nH]c(=O)sc12)CC1CCC1")
80

Observed Max. Resp. on PKM2 (Homo sapiens) for O=C(c1cc(C2CC2)n[nH]1)N(Cc1ccc(O)cc1F)CC1CCC1 , please.
85

Also need O=C(c1cc(C(F)(F)F)n[nH]1)N(CCN1CCCCCC1)Cc1c(F)cccc1F , thanks.
100
